- Test system: Hela (human cervical cancer cells)
- assay.protocol: MTT cancer cell growth inhibition
- Assay type: cell-based
- experimental.parameters: Homo sapiens, HeLa, 72 h, MTT, 72 hours incubation; read-out: GI50 Hela
- Description: MTT assay principle is yellow MTT can penetrate membrane into the cell, succinic dehydrogenase of the mitochondria in living cells can make exogenous MTT reduction of insoluble in water of blue-violet acicular formazan for crystallization and deposition in the cell, crystallization can be dissolved dimethyl sulfoxide (DMSO) solution, detected its absorbance at 490 nm/570 nm wavelength by enzyme-linked immunosorbent assay, which can reflect the number of cells. […] e) 570 nm readings. […]
Response field label takes 1.0 when GI50 is strictly below 0.06 µM and 0.0 in all other cases.

In [3]: df
Out[3]:
                                  mol_smiles  assigned_label
 0  CC(C)=C1NC(=O)c2cc(F)cc(n2)CNC(=O)C[C@@H](/C=C/CCS)OC(=O)[C@H](C(C)C)NC1=O             0.0
 1  C/C=C1\NC(=O)c2cc(F)cc(n2)CNC(=O)C[C@@H](/C=C/CCS)OC(=O)[C@H](CCCCNC(=O)OCC2c3ccccc3-c3ccccc32)NC1=O             1.0
 2  C/C=C1\NC(=O)c2cc(F)cc(n2)CNC(=O)C[C@@H](/C=C/CCSC(=O)CCC)OC(=O)[C@H](C(C)C)NC1=O             0.0
 3  C/C=C1\NC(=O)c2nc(ccc2F)CNC(=O)C[C@@H](/C=C/CCSC(C)=O)OC(=O)[C@H](CCCCN)NC1=O             1.0
 4  C/C=C1\NC(=O)c2nc(ccc2F)CNC(=O)C[C@@H](/C=C/CCS)OC(=O)[C@H](Cc2ccccc2)NC1=O             0.0
 5  C/C=C1\NC(=O)c2ccc(F)c(n2)CNC(=O)C[C@@H](/C=C/CCS)OC(=O)[C@H](C)NC1=O             0.0
 6  C/C=C1\NC(=O)c2nc(ccc2C)CNC(=O)C[C@@H](/C=C/CCSC(C)=O)OC(=O)[C@H](Cc2ccccc2)NC1=O             0.0
 7  C/C=C1\NC(=O)c2nc(ccc2F)CNC(=O)C[C@@H](/C=C/CCSC(=O)CCCCCCC)OC(=O)[C@H](C)NC1=O             0.0
 8  C/C=C1\NC(=O)c2ccc(F)c(n2)CNC(=O)C[C@@H](/C=C/CCSC(C)=O)OC(=O)[C@H](C(C)C)NC1=O             0.0
 9  C/C=C1\NC(=O)c2cc(F)cc(n2)CNC(=O)C[C@@H](/C=C/CCSC(C)=O)OC(=O)[C@H](C)NC1=O             0.0
10  C=C1NC(=O)c2cccc(n2)CNC(=O)C[C@@H](/C=C/CCSC(C)=O)OC(=O)[C@H](C)NC1=O             0.0
11  C/C=C1\NC(=O)c2nc(ccc2F)CNC(=O)C[C@@H](/C=C/CCS)OC(=O)[C@H](C(C)C)NC1=O             1.0
12  C/C=C1\NC(=O)c2ccc(F)c(n2)CNC(=O)C[C@@H](/C=C/CCSC(=O)CC)OC(=O)[C@H](C(C)C)NC1=O             0.0
13  C/C=C1\NC(=O)c2ccc(F)c(n2)CNC(=O)C[C@@H](/C=C/CCSC(C)=O)OC(=O)[C@H](CCCCN)NC1=O             1.0
14  C/C=C1\NC(=O)c2nc(ccc2F)CNC(=O)C[C@@H](/C=C/CCS)OC(=O)[C@H](Cc2ccc(O)cc2)NC1=O             1.0
15  C/C=C1\NC(=O)c2cc(F)cc(n2)CNC(=O)C[C@@H](/C=C/CCSC(=O)CCCC)OC(=O)[C@H](C(C)C)NC1=O             0.0
16  C/C=C1\NC(=O)c2ccc(F)c(n2)CNC(=O)C[C@@H](/C=C/CCS)OC(=O)[C@H](CCCCN)NC1=O             0.0
17  CC(C)=C1NC(=O)c2cccc(n2)CNC(=O)C[C@@H](/C=C/CCS)OC(=O)[C@H](C(C)C)NC1=O             0.0
18  C=C1NC(=O)c2nc(ccc2F)CNC(=O)C[C@@H](/C=C/CCSC(C)=O)OC(=O)[C@H](C(C)C)NC1=O             1.0
19  C/C=C1\NC(=O)c2nc(ccc2F)CNC(=O)C[C@@H](/C=C/CCSC(=O)CC)OC(=O)[C@H](C(C)C)NC1=O             0.0
